# System: Plasmodium falciparum
# assay-notes: Inhibition of Plasmodium falciparum protein farnesyltransferase at 5 nM by scintillation proximity assay
readout-name: inhibition (%)
Please respond with the number in % and leave the unit unwritten.

Worked cases, inhibition given:
compound	assay-result
Cn1cncc1CN1CC(N(CC2CCN(S(=O)(=O)c3ccccc3)CC2)S(=O)(=O)c2ccccn2)Cc2cc(C#N)ccc21 (stereo not drawn)	7
COC(=O)N1CCC(CN(C2Cc3cc(C#N)ccc3N(Cc3cncn3C)C2)S(=O)(=O)c2cccc3nsnc23)CC1 (stereo not drawn)	84
Cn1cncc1CN1CC(N(Cc2ccc(S(C)(=O)=O)cc2)S(=O)(=O)c2cncn2C)Cc2cc(C#N)ccc21 (stereo not drawn)	100
C=C(Br)CN(C1Cc2cc(-c3ccccc3)ccc2N(Cc2cncn2C)C1)S(=O)(=O)c1cn(C)cn1 (stereo not drawn)	89
Cn1cncc1CN1CC(N(CC2CCN(C(=O)OCC(F)(F)F)CC2)S(=O)(=O)c2ccccn2)Cc2cc(C#N)ccc21 (stereo not drawn)	47
Cc1ccccc1CN(C1Cc2cc(C#N)ccc2N(Cc2cncn2C)C1)S(=O)(=O)c1cn(C)cn1 (stereo not drawn)	95
Cn1cncc1CN1CC(N(Cc2ccccc2C(F)(F)F)S(=O)(=O)c2ccccn2)Cc2cc(C#N)ccc21 (stereo not drawn)	38

Now for another entry.
## Input Lab request: please report inhibition under test system Plasmodium falciparum for CCOC(=O)N1CCC(CN(C2Cc3cc(C#N)ccc3N(Cc3cncn3C)C2)S(=O)(=O)c2ccccn2)CC1 (stereo not drawn)
## Output 46

----------
Reported inhibition values follow for various compounds
# Test system: Plasmodium falciparum
# assay-notes: Inhibition of Plasmodium falciparum protein farnesyltransferase at 5 nM by scintillation proximity assay
Write down the numeric answer in % and omit the unit.

compound	inhibition / %
COC(=O)N1CCC(CN(C2Cc3cc(C#N)ccc3N(S(=O)(=O)c3cncn3C)C2)S(=O)(=O)c2ccccn2)CC1 (centres undefined)	0
Cn1cncc1CN1CC(N(Cc2ccccc2F)C(=O)c2c[nH]cn2)Cc2cc(C#N)ccc21 (centres undefined)	88
COC(=O)N1CCC(CN(C2Cc3cc(C#N)ccc3N(Cc3cncn3C)C2)S(=O)(=O)c2nccn2C)CC1 (centres undefined)	67

Next item in the queue.
## Input Given Cn1cncc1CN1CC(N(CC2CCN(C(=O)NC(C)(C)C)CC2)S(=O)(=O)c2ccccn2)Cc2cc(C#N)ccc21 (centres undefined) , state its recorded inhibition.
## Output 28

----------
Reported values of inhibition for individual entries
# System: Plasmodium falciparum
# assay-notes: Inhibition of Plasmodium falciparum protein farnesyltransferase at 5 nM by scintillation proximity assay
Express it in %; write the number only.

compound	measure-unit	assay-result
Cn1cncc1CN1CC(N(CC2CCN(C(=O)OCc3ccccc3)CC2)S(=O)(=O)c2ccccn2)Cc2cc(C#N)ccc21 (centres undefined)	%	13
Cn1cncc1CN1CC(N(CC2CCN(C(=O)C(C)(C)C)CC2)S(=O)(=O)c2ccccn2)Cc2cc(C#N)ccc21 (centres undefined)	%	17

## Input // query inhibition value for entry Cc1nc(C)c(S(=O)(=O)N(CC(=O)NC(C)(C)C)C2Cc3cc(C#N)ccc3N(Cc3cncn3C)C2)s1 (centres undefined)
## Output 3

## Input Would you kindly share the measured inhibition for Cn1cnc(S(=O)(=O)N(Cc2ccccc2C(F)(F)F)C2Cc3cc(C#N)ccc3N(Cc3cncn3C)C2)c1 (centres undefined) ?
## Output 93

----------
# Tested on: Plasmodium falciparum
# assay-notes: Antimalarial activity against Plasmodium falciparum K1
# Type: functional
# condition-summary: Plasmodium falciparum, K1; read-out: ED50 (the source's name)
Entries and their pEC50 values follow.
Please note pEC50 is a logarithmic value: minus log10 of concentration in mol/L. Answer with that number alone.

The following molecules have reported results that may help.
molecule	pEC50
Cn1cncc1CN1CC(N(CCCNC(=O)OC(C)(C)C)S(=O)(=O)c2ccccn2)Cc2cc(C#N)ccc21 (centres undefined)	7.12
COC(=O)N1CCC(CN(C2Cc3cc(C#N)ccc3N(C(C)c3cnc[nH]3)C2)S(=O)(=O)c2ccccn2)CC1 (centres undefined)	6.19
Cn1cnc(S(=O)(=O)N(CCc2ccccc2F)C2Cc3cc(C#N)ccc3N(Cc3cncn3C)C2)c1 (centres undefined)	7.80

Consider the additional molecule presented here.
## Input State the recorded pEC50 for this entry: Cn1cnc(S(=O)(=O)N(CCNC(=O)OC(C)(C)C)C2Cc3cc(C#N)ccc3N(Cc3cncn3C)C2)c1 (centres undefined)
## Output 7.12

----------
# System: Plasmodium falciparum
# assay-notes: Inhibition of Plasmodium falciparum protein farnesyltransferase at 5 nM by scintillation proximity assay
readout-name: inhibition
Form field: result (number plus unit)

Some solved entries appear below for comparison.
compound	assay-result
CCS(=O)(=O)N1CCC(CN(C2Cc3cc(C#N)ccc3N(Cc3cncn3C)C2)S(=O)(=O)c2ccccn2)CC1 (centres undefined)	56%
Cn1cncc1CN1CC(N(Cc2ccc(S(C)(=O)=O)cc2)S(=O)(=O)c2cccc(F)c2)Cc2cc(C#N)ccc21 (centres undefined)	67%

## Input What value of inhibition has been reported for the following compound? Cn1cnc(S(=O)(=O)N(Cc2ccc(S(C)(=O)=O)cc2)C2Cc3cc(C#N)ccc3N(Cc3cncn3C)C2)c1 (centres undefined)
## Output 99%

## Input Item under review: Cn1cncc1CN1CC(N(CCc2ccccc2C(F)(F)F)S(=O)(=O)c2ccccn2)Cc2cc(C#N)ccc21 (centres undefined) . Reported inhibition?
## Output 53%

----------
# Tested on: Plasmodium falciparum
# assay-notes: Antimalarial activity against Plasmodium falciparum K1
# Format: functional
# condition-summary: Plasmodium falciparum, K1; read-out: ED50 (the source's name)
pEC50: −log10 of the molar value.
Class 1: pEC50 at least 7. Class -1: pEC50 below 7.

compound	class
CN(C)S(=O)(=O)N(Cc1ccccc1F)C1Cc2cc(C#N)ccc2N(Cc2cncn2C)C1 (centres undefined)	-1
Cn1cncc1CN1CC(N(Cc2cc3nsnc3cc2Cl)S(=O)(=O)c2ccccn2)Cc2cc(C#N)ccc21 (centres undefined)	-1
COC(=O)N1CCC(CN(C2Cc3cc(C#N)ccc3N(Cc3cncn3C)C2)S(=O)(=O)C2CC2)CC1 (centres undefined)	-1

## Input Does pEC50 meet or surpass 7 for Cn1cnc(CN2CC(N(CC(=O)NC(C)(C)C)S(C)(=O)=O)Cc3cc(-c4ccccc4)ccc32)c1 (centres undefined) ?
## Output -1

## Input Quick check: does CN(C)CCN(C1Cc2cc(C#N)ccc2N(Cc2cncn2C)C1)S(=O)(=O)c1cn(C)cn1 (centres undefined) have pEC50 greater than or equal to 7?
## Output -1

## Input Check if pEC50 >= 7 (inclusive). Item: CC(=O)N(Cc1ccccc1F)C1Cc2cc(C#N)ccc2N(Cc2cncn2C)C1 (centres undefined)
## Output -1

## Input Record Cn1cnc(S(=O)(=O)N(Cc2ccsc2)C2Cc3cc(C#N)ccc3N(Cc3cncn3C)C2)c1 (centres undefined) ; criterion: pEC50 no lower than 7. Met?
## Output 1

## Input Test whether the compound C=C(C)C(=O)N1CCC(CN(C2Cc3cc(C#N)ccc3N(Cc3cncn3C)C2)S(=O)(=O)c2ccccn2)CC1 (centres undefined) records pEC50 of 7 or higher.
## Output 1

----------
# System: Plasmodium falciparum
# assay-notes: Inhibition of Plasmodium falciparum protein farnesyltransferase at 5 nM by scintillation proximity assay
Returns the class for an entry based on its inhibition. Class ranges: low value (below 40%), medium value (40% to below 80%), high value (80% or more)

molecule	target-of-assay	class
Cn1cnc(CN2CC(NS(=O)(=O)c3ccccn3)Cc3cc(-c4ccccc4)ccc32)c1 (configuration not stated)	Plasmodium falciparum	low value
Cn1cnc(S(=O)(=O)N(CCN2CCCC2=O)C2Cc3cc(C#N)ccc3N(Cc3cncn3C)C2)c1 (configuration not stated)	Plasmodium falciparum	medium value
CN(C)C(=O)N1CCC(CN(C2Cc3cc(C#N)ccc3N(Cc3cncn3C)C2)S(=O)(=O)c2ccccn2)CC1 (configuration not stated)	Plasmodium falciparum	low value
Cn1cnc(S(=O)(=O)N(CCN2CCCCC2)C2Cc3cc(C#N)ccc3N(Cc3cncn3C)C2)c1 (configuration not stated)	Plasmodium falciparum	medium value
COCCCN(C1Cc2cc(C#N)ccc2N(Cc2cncn2C)C1)S(=O)(=O)c1ccccn1 (configuration not stated)	Plasmodium falciparum	medium value
Cn1cc(S(=O)(=O)N(Cc2ccc(S(C)(=O)=O)cc2)C2Cc3cc(C#N)ccc3N(Cc3cncn3C)C2)cn1 (configuration not stated)	Plasmodium falciparum	high value
Cn1cncc1CN1CC(N(CCCN)S(=O)(=O)c2ccccn2)Cc2cc(C#N)ccc21 (configuration not stated)	Plasmodium falciparum	low value
Cn1cncc1CN1CC(N(Cc2ccc3ccccc3c2Br)S(=O)(=O)c2ccccn2)Cc2cc(C#N)ccc21 (configuration not stated)	Plasmodium falciparum	low value
Cn1cncc1CN1CC(N(CC(=O)O)S(=O)(=O)c2ccccn2)Cc2cc(C#N)ccc21 (configuration not stated)	Plasmodium falciparum	low value
Cn1cnc(S(=O)(=O)N(Cc2ccc(C#N)cc2)C2Cc3cc(C#N)ccc3N(Cc3cncn3C)C2)c1 (configuration not stated)	Plasmodium falciparum	high value

## Input Please report the category associated with Cn1cnc(S(=O)(=O)N(Cc2ccc3nonc3c2)C2Cc3cc(C#N)ccc3N(Cc3cncn3C)C2)c1 (configuration not stated) , nothing else.
## Output high value

## Input Category of COC(=O)N(Cc1ccccc1F)C1Cc2cc(C#N)ccc2N(Cc2cncn2C)C1 (configuration not stated) :
## Output low value
